target: T1, human ROR1 extracellular domain-Fc fusion (human, UniProt Q01973 30-406); test: SPR
T1 construct: extracellular domain; also called hROR1; ROR1-hFc
measured_attribute: koff (s⁻¹)
Answer with a number only, understood to be in s⁻¹.

Bench note: what koff did P3A1 VNAR with 6xHis tag (VNAR, not shown: small tags and cut ends, shark VNAR domain; also called P3A1 6xHis) VNAR: TRVDQTPRTATKETGESLTINCVLTDTSYGLYSTSWFRKNPGTTDWERMSIGGRYVESVNKGAKSFSLRIKDLTVADSATYYCKAREARHPWLRQWYDGAGTVLTVN show?
0.0206

Bench note: what koff did P3A1 dimer without tag (VNAR, also called P3A1 dimer No tag) TRVDQTPRTATKETGESLTINCVLTDTSYGLYSTSWFRKNPGTTDWERMSIGGRYVESVNKGAKSFSLRIKDLTVADSATYYCKAREARHPWLRQWYDGAGTVLTVNGGGGSGGGGSGGGGSGGGGSGGGGSTRVDQTPRTATKETGESLTINCVLTDTSYGLYSTSWFRKNPGTTDWERMSIGGRYVESVNKGAKSFSLRIKDLTVADSATYYCKAREARHPWLRQWYDGAGTVLTVN show?
0.000598

Bench note: what koff did P3A1 VNAR with His6Myc tag (VNAR, shark VNAR domain; also called P3A1 6xHis myc) VNAR: TRVDQTPRTATKETGESLTINCVLTDTSYGLYSTSWFRKNPGTTDWERMSIGGRYVESVNKGAKSFSLRIKDLTVADSATYYCKAREARHPWLRQWYDGAGTVLTVNQ show?
0.025

Bench note: what koff did P3A1-[G4S]5-P3A1 homodimer with His6Myc tag (VNAR, genetic fusion of two VNAR domains; also called P3A1 dimer 6xHis myc; P3A1-P3A1) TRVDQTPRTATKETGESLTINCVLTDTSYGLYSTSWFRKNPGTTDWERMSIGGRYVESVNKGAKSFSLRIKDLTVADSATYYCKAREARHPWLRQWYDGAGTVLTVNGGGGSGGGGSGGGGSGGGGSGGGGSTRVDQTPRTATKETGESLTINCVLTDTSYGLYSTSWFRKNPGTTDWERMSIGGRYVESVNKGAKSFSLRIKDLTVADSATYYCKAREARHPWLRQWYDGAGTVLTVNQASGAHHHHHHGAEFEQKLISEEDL show?
0.000637
